Reference for the values: patent US20230077362A1

Catalogue of pest or weed control at 50 µg/cm2 readings, one per entry.
# Test system: Cabbage Looper (Trichoplusia ni) ("CL"), second instar larvae
# ASSAY_OVERVIEW: Bioassay on cabbage looper (CL), 128-well diet tray assay
# Format: in vivo
# TEST_CONDITIONS: Trichoplusia ni, read-out: CL (Biological Results, rating)

COMPOUND: CCc1cc(-c2ncn(-c3ccc(OC(F)(F)F)cc3)n2)ccc1NC(=O)/N=C1\SCC(=O)N1c1cc(C)ccc1C(C)C [Compound J70]
pest or weed control at 50 µg/cm2: 50 to 100%

Entry under test: Cc1ccc(COCC(F)(F)F)c(N2C(=O)CS/C2=N\C(=O)Nc2ccc(-c3ncn(-c4ccc(OC(F)(F)F)cc4)n3)cc2Cl)c1 [Compound J194] . Its pest or weed control at 50 µg/cm2 was 50 to 100%

Entry under test: Cc1ccc(COCC(F)(F)F)c(N2C(=O)CS/C2=N\C(=O)Nc2ccc(-c3ncn(-c4ccc(SC(F)(F)F)cc4)n3)cc2F)c1 [Compound J186] . Its pest or weed control at 50 µg/cm2 was 50 to 100%

###

# Tested on: Cabbage Looper (Trichoplusia ni) ("CL"), second instar larvae
# ASSAY_OVERVIEW: Bioassay on cabbage looper (CL), 128-well diet tray assay
# Type: in vivo
# TEST_CONDITIONS: Trichoplusia ni, read-out: CL (Biological Results, rating)
MEASURED_METRIC: pest or weed control at 50 µg/cm2

COMPOUND: CC(C)c1cc(F)c(N(C)C)cc1N1C(=O)CS/C1=N\C(=O)Nc1ccc(-c2ncn(-c3ccc(OC(F)(F)F)cn3)n2)cc1F
pest or weed control at 50 µg/cm2: 50 to 100%
--
COMPOUND: Cc1ccc(C(C)C)c(N2C(=O)CS/C2=N\C(=O)Nc2ccc(-c3ncn(-c4ccc(OC(F)(F)F)cn4)n3)cc2C(F)(F)F)c1
pest or weed control at 50 µg/cm2: 50 to 100%

// switching to the query compound
// pest or weed control at 50 µg/cm2 (Cabbage Looper (Trichoplusia ni) ("CL"), second instar larvae) for Cc1ccc(OCCC(F)(F)F)c(N2C(=O)C(Cl)S/C2=N\C(=O)Nc2ccc(-c3ncn(-c4ccc(OC(F)(F)F)cc4)n3)cc2F)c1 (stereo not drawn) = 50 to 100%

###

# Tested on: Beet Armyworm (Spodoptera exigua) ("BAW"), second instar larvae
# ASSAY_OVERVIEW: Bioassay on beet armyworm (BAW), 128-well diet tray assay
# Assay type: in vivo
# TEST_CONDITIONS: Spodoptera exigua, read-out: BAW (Biological Results, rating)
MEASURED_METRIC: pest or weed control at 50 µg/cm2

MOLECULE: CNc1ccc(C(C)C)c(N2C(=O)CS/C2=N\C(=O)Nc2ccc(-c3ncn(-c4ccc(OC(F)(F)F)cc4)n3)cc2F)c1 [Compound J85]
pest or weed control at 50 µg/cm2: 50 to 100%

Entry under test: COc1ccc(C(C)C)c(N2C(=O)CS/C2=N\C(=O)Nc2ccc(-c3ncn(-c4ccc(C(F)F)cn4)n3)cc2F)c1 [Compound J355] . Its pest or weed control at 50 µg/cm2 was 50 to 100%

Entry under test: CC(C)c1ccc(N(C)C)cc1N1C(=O)CS/C1=N\C(=O)Nc1ccc(-c2ncn(-c3cccc(OC(F)(F)F)c3)n2)cc1F [Compound J155] . Its pest or weed control at 50 µg/cm2 was 50 to 100%

###

# System: Green Peach Aphid ("GPA") (Myzus persicae), wingless adult and nymph stages
# ASSAY_OVERVIEW: Bioassay on green peach aphid (GPA), foliar spray on infested cabbage seedlings
# Format: in vivo
# TEST_CONDITIONS: Myzus persicae, foliar, 72 h, read-out: GPA (Biological Results, rating)
MEASURED_METRIC: pest or weed control at 200 µg/mL

COMPOUND: CC(C)c1ccc(N(C)C)cc1N1C(=O)CS/C1=N\C(=O)Nc1ccc(-c2ncn(-c3ccc(OC(F)(F)F)cc3)n2)cc1F
MEASURED_METRIC: pest or weed control at 200 µg/mL
ENDPOINT_VALUE: 0 to 80%

COMPOUND: Cc1ccc(COCC(F)(F)F)c(N2C(=O)CS/C2=N\C(=O)Nc2ccc(-c3ncn(-c4ccc(C(F)(F)F)cc4)n3)cc2F)c1
MEASURED_METRIC: pest or weed control at 200 µg/mL
ENDPOINT_VALUE: 0 to 80%

COMPOUND: Cc1ccc(C(C)C)c(N2C(=O)C(Cl)S/C2=N\C(=O)Nc2ccc(-c3ncn(-c4ccc(OC(F)(F)F)cc4)n3)cc2)c1 (stereo not drawn)
MEASURED_METRIC: pest or weed control at 200 µg/mL
ENDPOINT_VALUE: 0 to 80%

COMPOUND: Cc1ccc(C(C)C)c(N2C(=O)CS/C2=N\C(=O)Nc2ccc(-c3ncn(-c4ccc(SC(F)(F)F)cc4)n3)cc2Cl)c1
MEASURED_METRIC: pest or weed control at 200 µg/mL
ENDPOINT_VALUE: 0 to 80%

COMPOUND: Cc1ccc(C(F)(F)F)c(N2C(=O)CS/C2=N\C(=O)NCC(F)c2ccc(-c3ncn(-c4ccc(OC(F)(F)F)cc4)n3)cc2)c1 (stereo not drawn)
MEASURED_METRIC: pest or weed control at 200 µg/mL
ENDPOINT_VALUE: 80 to 100%

// pest or weed control at 200 µg/mL (Green Peach Aphid ("GPA") (Myzus persicae), wingless adult and nymph stages) for Cc1ccc(OCCC(F)(F)F)c(N2C(=O)CS/C2=N\C(=O)Nc2ccc(-c3ncn(-c4cccc(OC(F)(F)F)c4)n3)cc2C)c1 = 0 to 80%

###

Catalogue of pest or weed control at 50 µg/cm2 readings, one per entry.
# Tested on: Cabbage Looper (Trichoplusia ni) ("CL"), second instar larvae
# ASSAY_OVERVIEW: Bioassay on cabbage looper (CL), 128-well diet tray assay
# Assay type: in vivo
# TEST_CONDITIONS: Trichoplusia ni, read-out: CL (Biological Results, rating)

Check out these entries, answers already filled in.
MOLECULE: Cc1ccc(C(C)C)c(N2C(=O)CS/C2=N\C(=O)Nc2ccc(-c3ncn(-c4cccc(C(F)(F)F)c4)n3)cc2F)c1 [Compound J140]
pest or weed control at 50 µg/cm2: 50 to 100%
//
MOLECULE: Cc1ccc(OCC(F)(F)F)c(N2C(=O)CS/C2=N\C(=O)Nc2ccc(-c3ncn(-c4ccc(OC(F)(F)F)cc4)n3)cc2Br)c1 [Compound J218]
pest or weed control at 50 µg/cm2: 50 to 100%
//
MOLECULE: CC(C)c1ccc(N(C)C)cc1N1C(=O)CS/C1=N\C(=O)Nc1ccc(-c2ncn(-c3ccc(SC(F)(F)F)cc3)n2)cc1F [Compound J334]
pest or weed control at 50 µg/cm2: 50 to 100%

Entry under test: COc1ccc(C(C)C)c(N2C(=O)CS/C2=N\C(=O)Nc2ccc(-c3ncn(-c4ccc(C(F)(F)F)cc4)n3)c(C)c2)c1 [Compound J5] . Its pest or weed control at 50 µg/cm2 was 50 to 100%

Entry under test: CC(C)c1ccc(C(C)C)c(N2C(=O)CS/C2=N\C(=O)Nc2ccc(-c3ncn(-c4ccc(OC(F)(F)F)cc4)n3)cc2F)c1 [Compound J164] . Its pest or weed control at 50 µg/cm2 was 50 to 100%

Entry under test: CN(C)c1ccc(OCCC(F)(F)F)c(N2C(=O)CS/C2=N\C(=O)Nc2ccc(-c3ncn(-c4ccc(OC(F)(F)F)cc4)n3)cc2F)c1 [Compound J105] . Its pest or weed control at 50 µg/cm2 was 50 to 100%

###

# Test system: Cabbage Looper (Trichoplusia ni) ("CL"), second instar larvae
# ASSAY_OVERVIEW: Bioassay on cabbage looper (CL), 128-well diet tray assay
# Format: in vivo
# TEST_CONDITIONS: Trichoplusia ni, read-out: CL (Biological Results, rating)
Catalogue of pest or weed control at 50 µg/cm2 readings, one per entry.

Check out these entries, answers already filled in.
MOLECULE: COC(C)c1ccc(C)cc1N1C(=O)CS/C1=N\C(=O)Nc1ccc(-c2ncn(-c3ccc(OC(F)(F)F)cc3)n2)cc1C#N (stereo not shown)
pest or weed control at 50 µg/cm2: 50 to 100%

MOLECULE: COC(C)c1ccc(C)cc1N1C(=O)CS/C1=N\C(=O)Nc1ccc(-c2ncn(-c3ccc(OC(F)(F)F)cc3)n2)cc1Br (stereo not shown)
pest or weed control at 50 µg/cm2: 50 to 100%

MOLECULE: Cc1ccc(OCC(F)(F)F)c(N2C(=O)CS/C2=N\C(=O)Nc2c(F)cc(-c3ncn(-c4ccc(OC(F)(F)F)cc4)n3)cc2F)c1
pest or weed control at 50 µg/cm2: 50 to 100%

MOLECULE: Cc1ccc(COCC(F)(F)F)c(N2C(=O)CS/C2=N\C(=O)Nc2ccc(-c3ncn(-c4ccc(OC(F)(F)F)cc4)n3)cc2C(F)(F)F)c1
pest or weed control at 50 µg/cm2: 50 to 100%

MOLECULE: O=C(/N=C1\SCC(=O)N1c1ccccc1N1CCCCC1)Nc1ccc(-c2ncn(-c3ccc(OC(F)(F)F)cc3)n2)cc1F
pest or weed control at 50 µg/cm2: 50 to 100%

Entry under test: CC(C)c1ccc(N(C)C)cc1N1C(=O)CS/C1=N\C(=O)Nc1ccc(-c2ncn(-c3cccc(OC(F)(F)F)c3)n2)cc1F . Its pest or weed control at 50 µg/cm2 was 50 to 100%

Entry under test: COC(C)c1ccc(C)cc1N1C(=O)CS/C1=N\C(=O)Nc1ccc(-c2ncn(-c3ccc(OC(F)(F)F)cn3)n2)cc1C#N (stereo not shown) . Its pest or weed control at 50 µg/cm2 was 50 to 100%
